# tested_on: T1, Bbc1, P47068
# T1 sequence (P47068 1-78, looked up): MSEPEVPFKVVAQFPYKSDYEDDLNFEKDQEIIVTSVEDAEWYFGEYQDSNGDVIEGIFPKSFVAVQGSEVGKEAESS
# protocol_text: SPOT array
# conditions_used: median of control spots 796
experimental_readout: SPOT intensity

* TKRKRPARLIFYDSK | 308
* HAPPLPPTAPPPPSL | 0
* ATKSASPTLPTRRSR | 79
* NENKKLPPAPTVFGL | 0
* APKHAPPPVPNETDN | 0
* AATTSTPPLPRRRAT | 103

A. VQPTAAPATPPRHIS
B. PPPPPPPPPPPLPQS
C. FSRRQSMDIPSKNRN
D. KFIPSRPAPKPPSSA
Ascending by SPOT intensity, please: list the binders accordingly. Returns: the labels arranged in the requested order.
B, A, C, D
(B: 0, A: 2, C: 7, D: 316)
